So I've got a bunch of compounds here, and I need their IC50 values.
Tested on: A498 complex spheroids with HUVEC/MSC, growth
Test: Anticancer human tumor A498 cell line growth inhibition [AhR];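 also: seven day exposure starting three days after spheroid seeding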
Conditions: curve of first compound; second compound 10 µM
Description: Multicellular complex tumor spheroid response to aryl hydrocarbon receptor antagonists in combination with a variety of drugs and investigational agents in selected tumor cell lines […] Compounds. […] If the clinical Cmax for an agent had not been determined, the highest concentration tested was 10 microM (Table 1). […]

Please review the entries below; each comes with its answer.
O=C(C=Cn1cnc(-c2cc(C(F)(F)F)cc(C(F)(F)F)c2)n1)NNc1cnccn1 + CC(CO)NC(=O)c1cc(-c2ccc(Cl)cc2)nn(-c2cnn(C)c2)c1=O ... 0.00975 µM
CCN(c1cc(-c2ccc(CN3CCOCC3)cc2)cc(C(=O)NCc2c(C)cc(C)[nH]c2=O)c1C)C1CCOCC1 + CC(CO)NC(=O)c1cc(-c2ccc(Cl)cc2)nn(-c2cnn(C)c2)c1=O ... > 3 µM

# per-item lookup of IC50; items listed below
1. CC1COCCN1c1cc(-c2ccnn2C)c2ccnc(-c3ccn[nH]3)c2n1 (stereo unspecified) + Cc1cncc(-c2nc(NCCc3c[nH]c4ccccc34)c3ncn(C(C)C)c3n2)c1
2. COc1cc(C2c3cc4c(cc3C(OC3OC5COC(C)OC5C(O)C3O)C3COC(=O)C23)OCO4)cc(OC)c1O (stereo unspecified) + Cc1cncc(-c2nc(NCCc3c[nH]c4ccccc34)c3ncn(C(C)C)c3n2)c1
3. CC1COCCN1c1cc(-c2ccnn2C)c2ccnc(-c3ccn[nH]3)c2n1 (stereo unspecified) + CC(CO)NC(=O)c1cc(-c2ccc(Cl)cc2)nn(-c2cnn(C)c2)c1=O

["< 0.00316 µM", "< 0.0316 µM", "0.0417 µM"]

Can you look up the measured IC50 of COc1cc(C2c3cc4c(cc3C(OC3OC5COC(C)OC5C(O)C3O)C3COC(=O)C23)OCO4)cc(OC)c1O (stereo unspecified) + CC(CO)NC(=O)c1cc(-c2ccc(Cl)cc2)nn(-c2cnn(C)c2)c1=O for me? 0.4 µM

---

test system: A498 complex spheroids with HUVEC/MSC, growth; experiment: Anticancer human tumor A498 cell line growth inhibition [AhR]; conditions: second compound 0.316 µM; first compound 3.16 µM; active = viability on the fitted dose curve at most 10% of control; inactive = the rest;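 also: seven day exposure starting three days after spheroid seeding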
Outcomes you can answer with include only these: active, inactive

Use the examples below as a reference point.
NS(=O)(=O)OCC1CC(n2ccc3c(NC4CCc5ccccc54)ncnc32)CC1O (stereo not drawn) + Cc1ccccc1N=Nc1ccc(NC(=O)c2ccnn2C)c(C)c1 ... inactive
Nc1ccn(C2OC(CO)C(O)C2(F)F)c(=O)n1 (stereo not drawn) + Cc1cncc(-c2nc(NCCc3c[nH]c4ccccc34)c3ncn(C(C)C)c3n2)c1 ... inactive

Which result was noted for this compound in the test: COc1cccc2c1C(=O)c1c(O)c3c(c(O)c1C2=O)CC(O)(C(=O)CO)CC3OC1CC(N)C(O)C(C)O1 (stereo not drawn) + CC(CO)NC(=O)c1cc(-c2ccc(Cl)cc2)nn(-c2cnn(C)c2)c1=O active

---

tested on: A498 complex spheroids with HUVEC/MSC, growth; assay: Anticancer human tumor A498 cell line growth inhibition [AhR]; details: second compound 0.316 µM; first compound 3.16 µM; stronger effect = lower value;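 also: seven day exposure starting three days after spheroid seeding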;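 as to viability, T/C: luminescence signal used as a surrogate for viable cells; luminescence viability scaled so 100% equals DMSO vehicle wells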
Recorded metric: viability, T/C

# per-item lookup of viability, T/C; items listed below
1. COc1cc(Nc2ncc3c(n2)-c2ccc(Cl)cc2C(c2c(F)cccc2OC)=NC3)ccc1C(=O)O + CC(CO)NC(=O)c1cc(-c2ccc(Cl)cc2)nn(-c2cnn(C)c2)c1=O
2. CC1COCCN1c1cc(C2(S(C)(=N)=O)CC2)nc(-c2ccnc3[nH]ccc23)n1 (configuration not stated) + Cc1cncc(-c2nc(NCCc3c[nH]c4ccccc34)c3ncn(C(C)C)c3n2)c1
3. CC1(C)CCC(CN2CCN(c3ccc(C(=O)NS(=O)(=O)c4ccc(NCC5CCOCC5)c([N+](=O)[O-])c4)c(Oc4cnc5[nH]ccc5c4)c3)CC2)=C(c2ccc(Cl)cc2)C1 + CC(CO)NC(=O)c1cc(-c2ccc(Cl)cc2)nn(-c2cnn(C)c2)c1=O

["43.3%", "45.7%", "69.7%"]

# per-item lookup of viability, T/C; items listed below
1. COc1ccc([C@@H](O)c2cc(-c3ncnc4cc(N5CCOCC5)ccc34)c(F)cc2Cl)nn1 + CC(CO)NC(=O)c1cc(-c2ccc(Cl)cc2)nn(-c2cnn(C)c2)c1=O
2. Nc1ccccc1NC(=O)c1ccc(CNC(=O)OCc2cccnc2)cc1 + Cc1cncc(-c2nc(NCCc3c[nH]c4ccccc34)c3ncn(C(C)C)c3n2)c1
3. CC(C)c1c(-c2ccccc2)nc2c(C#N)c[nH]n2c1=O + CC(CO)NC(=O)c1cc(-c2ccc(Cl)cc2)nn(-c2cnn(C)c2)c1=O

1: 13.6%; 2: 24%; 3: 87.3%

# per-item lookup of viability, T/C; items listed below
1. CC(C)c1c(-c2ccccc2)nc2c(C#N)c[nH]n2c1=O + Cc1cncc(-c2nc(NCCc3c[nH]c4ccccc34)c3ncn(C(C)C)c3n2)c1
2. Nc1ccn(C2OC(CO)C(O)C2(F)F)c(=O)n1 (configuration not stated) + CC(CO)NC(=O)c1cc(-c2ccc(Cl)cc2)nn(-c2cnn(C)c2)c1=O
3. Nc1ccn(C2OC(CO)C(O)C2(F)F)c(=O)n1 (configuration not stated) + Cc1ccccc1N=Nc1ccc(NC(=O)c2ccnn2C)c(C)c1
4. Nc1ccccc1NC(=O)c1ccc(CNC(=O)OCc2cccnc2)cc1 + Cc1ccccc1N=Nc1ccc(NC(=O)c2ccnn2C)c(C)c1
5. CC(C)c1c(-c2ccccc2)nc2c(C#N)c[nH]n2c1=O + Cc1ccccc1N=Nc1ccc(NC(=O)c2ccnn2C)c(C)c1
6. COc1cc(C2c3cc4c(cc3C(OC3OC5COC(C)OC5C(O)C3O)C3COC(=O)C23)OCO4)cc(OC)c1O (configuration not stated) + Cc1ccccc1N=Nc1ccc(NC(=O)c2ccnn2C)c(C)c1

1: 96.9%; 2: 35%; 3: 50.5%; 4: 28.5%; 5: 82.8%; 6: 59.5%

---

system: A498 complex spheroids with HUVEC/MSC, growth; experiment: Anticancer human tumor A498 cell line growth inhibition [AhR]; settings: second compound 3.16 µM; first compound 0.00949 µM; stronger effect = lower value;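 also: seven day exposure starting three days after spheroid seeding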;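 as to viability, T/C: luminescence signal used as a surrogate for viable cells; luminescence viability scaled so 100% equals DMSO vehicle wells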
Recorded metric: viability, T/C (%)
One number for each entry, in %.

Please review the entries below; each comes with its answer.
CC(C)CC(NC(=O)C(Cc1ccccc1)NC(=O)c1cnccn1)B(O)O (stereo not drawn) + Cc1ccccc1N=Nc1ccc(NC(=O)c2ccnn2C)c(C)c1 ... 11.8
CCN(c1cc(-c2ccc(CN3CCOCC3)cc2)cc(C(=O)NCc2c(C)cc(C)[nH]c2=O)c1C)C1CCOCC1 + CC(CO)NC(=O)c1cc(-c2ccc(Cl)cc2)nn(-c2cnn(C)c2)c1=O ... 84.3

Can you look up the measured viability, T/C of Nc1ncn(C2CC(O)C(CO)S2)c(=O)n1 (stereo not drawn) + CC(CO)NC(=O)c1cc(-c2ccc(Cl)cc2)nn(-c2cnn(C)c2)c1=O for me? 105

---

test system: A498 complex spheroids with HUVEC/MSC, growth; assay: Anticancer human tumor A498 cell line growth inhibition [AhR]; conditions: second compound 0.1 µM; first compound 0.03 µM; active = viability on the fitted dose curve at most 10% of control; inactive = the rest;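 also: seven day exposure starting three days after spheroid seeding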
Outcomes you can answer with include only these: 1 (active), -1 (inactive)

Which result was noted for this compound in the test: CC(C)CC(NC(=O)C(Cc1ccccc1)NC(=O)c1cnccn1)B(O)O (stereo not given) + CC(CO)NC(=O)c1cc(-c2ccc(Cl)cc2)nn(-c2cnn(C)c2)c1=O 1

Follow-up entry: CCc1c2c(nc3ccc(O)cc13)-c1cc3c(c(=O)n1C2)COC(=O)[C@]3(O)CC + CC(CO)NC(=O)c1cc(-c2ccc(Cl)cc2)nn(-c2cnn(C)c2)c1=O -1

Follow-up entry: O=C(C=Cn1cnc(-c2cc(C(F)(F)F)cc(C(F)(F)F)c2)n1)NNc1cnccn1 + CC(CO)NC(=O)c1cc(-c2ccc(Cl)cc2)nn(-c2cnn(C)c2)c1=O -1

Follow-up entry: CCc1c2c(nc3ccc(O)cc13)-c1cc3c(c(=O)n1C2)COC(=O)[C@]3(O)CC + Cc1ccccc1N=Nc1ccc(NC(=O)c2ccnn2C)c(C)c1 -1

Follow-up entry: CC(C)CC(NC(=O)C(Cc1ccccc1)NC(=O)c1cnccn1)B(O)O (stereo not given) + Cc1ccccc1N=Nc1ccc(NC(=O)c2ccnn2C)c(C)c1 1

Follow-up entry: Nc1ncn(C2CC(O)C(CO)S2)c(=O)n1 (stereo not given) + CC(CO)NC(=O)c1cc(-c2ccc(Cl)cc2)nn(-c2cnn(C)c2)c1=O -1

---

system: A498 complex spheroids with HUVEC/MSC, growth; test: Anticancer human tumor A498 cell line growth inhibition [AhR]; details: curve of first compound; second compound 10 µM;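 also: seven day exposure starting three days after spheroid seeding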
Recorded metric: IC50 (nM)
Answers are plain numbers, in nM.

# per-item lookup of IC50; items listed below
1. NS(=O)(=O)OCC1CC(n2ccc3c(NC4CCc5ccccc54)ncnc32)CC1O (stereo not drawn) + CC(CO)NC(=O)c1cc(-c2ccc(Cl)cc2)nn(-c2cnn(C)c2)c1=O
2. CCc1c2c(nc3ccc(O)cc13)-c1cc3c(c(=O)n1C2)COC(=O)[C@]3(O)CC + CC(CO)NC(=O)c1cc(-c2ccc(Cl)cc2)nn(-c2cnn(C)c2)c1=O

[196, 4.73]

These measurements were taken from PubChem BioAssay AID1919007.
